Data origin: PubChem BioAssay AID463212

- protocol: growth inhibitors of tim23-1 mutant yeast, primary screen, luminescence, uHTS (AID 463212);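 also: temperature-sensitive mutant grown at 25 °C; plate controls were DMSO-treated mutant yeast for no effect and medium wells lacking yeast for full effect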
- conditions: S. cerevisiae tim23-1 growth, BacTiter-Glo luminescence, 24 h; at 20 µM; active compounds read high
The whole screen tested about 330,000 compounds, of which about 4,400 (1.3%) were called active. This is one part of a sample in which actives are shown more often than they occur.
endpoint: inhibition

compound: CC(C)(C)OC(=O)CNC(=O)c1[nH]cnc1C(=O)N[C@@H](CCCCN)C(=O)OC(C)(C)C
inhibition: -2.18% (inactive)
//
compound: COc1ccc(CN2CCCCC2C)cc1OC (stereo unspecified)
inhibition: 10.1% (inactive)
//
compound: CCCCC(CC)CNC(=O)CCCCn1c(=O)[nH]c2ccsc2c1=O (stereo unspecified)
inhibition: -5.06% (inactive)
//
compound: CCCCCNC(=O)C1c2ccccc2Oc2ccccc21
inhibition: 18.6% (inactive)
//
compound: CCCn1c(N)c(C(=O)CSc2nnc3n2CCCCC3)c(=O)[nH]c1=O
inhibition: 7.27% (inactive)

Kindly review the next compound as well.
Bench note: what inhibition did "CNS(=O)(=O)c1cnccc1N1CCN(c2cccc(C)c2)CC1" show?
0.287% (inactive)

###

Reported inhibition by item:
- protocol: growth inhibitors of tim23-1 mutant yeast, primary screen, luminescence, uHTS (AID 463212)
- conditions: S. cerevisiae tim23-1 growth, BacTiter-Glo luminescence, 24 h; at 20 µM; active compounds read high
Out of some 330,000 compounds screened, about 4,400 (1.3%) were called active. Shown is part of a subset that was picked to be rich in actives.
# number only, unit % dropped from output

Some solved cases for reference:
compound: O=C(OCc1cc2ccccc2[nH]c1=O)c1cccnc1
endpoint: inhibition
value.measured: -4.57
//
compound: CN(C)/C=C(/C(=O)c1ccccc1Cl)S(C)(=O)=O
endpoint: inhibition
value.measured: 8.01
//
compound: O=C(Nc1ccc(N2CCOCC2)cc1)c1ccc2c(c1)OCO2
endpoint: inhibition
value.measured: 10.9
//
compound: O=C(Oc1c(-c2ccco2)oc2ccccc2c1=O)c1cccnc1
endpoint: inhibition
value.measured: 51.2
//
compound: O=C(Nc1ccc(NC(=O)c2ccc3c(c2)OCO3)cc1)c1cccc(Cl)c1
endpoint: inhibition
value.measured: 1.12
//
compound: O=C(Nc1ccc(NC(=O)c2cccs2)cn1)c1ccco1
endpoint: inhibition
value.measured: 17.2

Reported inhibition for COCC(C)OC(=O)c1c(N)n(CCCN2CCOCC2)c2nc3ccccc3nc12 (stereo unspecified) : what is it?
5.92

Fill blank: measured inhibition of the compound "CC(=O)N1CCOc2ccc(S(=O)(=O)N3CCN(c4cccc(C(F)(F)F)c4)CC3)cc21" is ____.
36.1

Which inhibition reading was recorded for the compound "O=C(Nc1ccccc1)c1ccc2c(c1)OCCCO2" ?
51

Item "CCOc1ccccc1NC(=O)Cn1nnc(C(=O)NCc2cccs2)c1N" has what recorded inhibition?
0.467

Item "Cc1ccc(-c2csc(NCCc3nc4cc(Cl)c(Cl)cc4n3CCOCCO)n2)cc1" has what recorded inhibition?
25.4

###

- protocol: growth inhibitors of tim23-1 mutant yeast, primary screen, luminescence, uHTS (AID 463212)
- conditions: S. cerevisiae tim23-1 growth, BacTiter-Glo luminescence, 24 h; at 20 µM; active compounds read high
The campaign covered roughly 330,000 compounds. About 4,400 (1.3%) were called active. What follows is part of a selection rich in actives, with near analogues and random picks from the rest.
Documented inhibition across a set of compounds

The examples below pair each entry with its known result.
compound: Cc1ccc(C(=O)/C=C/c2c(C)nn(-c3ccccc3)c2Cl)cc1
inhibition: 36.5% (inactive)
--
compound: CCOc1cc(/C=C2\SC(N3CCCC(C)C3)=NC2=O)ccc1O (configuration not stated)
inhibition: 51.4% (active)
--
compound: Cc1ccc2nc(/C(C#N)=C\c3ccc(OC(=O)c4cccs4)cc3)[nH]c2c1
inhibition: -4.69% (inactive)
--
compound: Cc1nn(-c2ccccc2)c(Cl)c1/C=C/C(=O)c1ccc(O)cc1
inhibition: 50.6% (active)
--
compound: CC(OC(=O)CCCc1c[nH]c2ccccc12)C(=O)Nc1ccc(S(N)(=O)=O)cc1 (configuration not stated)
inhibition: 11.1% (inactive)
--
compound: Cc1nn(-c2ccccc2)c(C)c1/C=C/C(=O)OC(C)C(N)=O (configuration not stated)
inhibition: 10.4% (inactive)

GET /values?readout=inhibition&item= "COc1ccc(NC(=O)NNC(=O)COc2cc(C)c(Cl)c(C)c2)c(OC)c1"
-17.4% (inactive)

Please give the measured inhibition for this compound: CC1=NN(C(=O)c2ccc(Br)cc2)C(O)(c2ccccc2)C1 (configuration not stated)
29.5% (inactive)

###

- protocol: growth inhibitors of tim23-1 mutant yeast, primary screen, luminescence, uHTS (AID 463212)
- conditions: S. cerevisiae tim23-1 growth, BacTiter-Glo luminescence, 24 h; at 20 µM
The whole screen tested about 330,000 compounds, of which about 4,400 (1.3%) were called active.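 Rule for the calls: active = growth inhibition of the mutant yeast at or above 50%; inactive = the rest.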 Only a selection was taken, and actives are over-represented in it overall.
Respond only with the outcome that fits, drawn from label 1 = active, label 0 = inactive

Completed entries (count: 4):
molecule: Cc1cccc(C)c1NC(=O)C(c1ccccc1)N1CC(=O)Nc2ccccc21 (configuration not stated)
assigned.label: label 0
--
molecule: CC(C)[C@H](NC(=O)OCc1ccccc1)C(=O)OCc1ccccc1
assigned.label: label 0
--
molecule: Cc1ccc(S(=O)(=O)c2c[nH]c3ccc(C)cc3c2=O)cc1
assigned.label: label 0
--
molecule: C(=N/N1CCN(c2ccccc2)CC1)/c1cccs1
assigned.label: label 0

What did the test return for "COc1cc(NC(=O)c2cccs2)ccc1NC(=O)c1ccccc1Cl" ?
label 1

Which outcome was entered for the molecule CN(C)Cc1ccccc1C1(O)c2ccccc2CSc2ccccc21 (configuration not stated) in this test?
label 0

###

- protocol: growth inhibitors of tim23-1 mutant yeast, primary screen, luminescence, uHTS (AID 463212);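 also: temperature-sensitive mutant grown at 25 °C; plate controls were DMSO-treated mutant yeast for no effect and medium wells lacking yeast for full effect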
- conditions: S. cerevisiae tim23-1 growth, BacTiter-Glo luminescence, 24 h; at 20 µM
Screen size: about 330,000 compounds; about 4,400 (1.3%) were called active.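 Rule for the calls: active = growth inhibition of the mutant yeast at or above 50%; inactive = the rest.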 This excerpt belongs to a sample that is enriched for actives.
Outcome (select one): active, inactive

Here are 5 molecules together with their reported answers.
structure.string: Cc1cc(Nc2ccc(Br)cc2)nc2ccccc12
assigned.label: active

structure.string: Cc1ccc(NC(=S)N2CCN(c3ncccn3)CC2)cc1C
assigned.label: inactive

structure.string: Cc1ccc2nc(Nc3ccccc3O)nc(-c3ccccc3)c2c1
assigned.label: inactive

structure.string: CN1CCN(c2nc(Nc3ccc(O)cc3)nc3ccccc23)CC1
assigned.label: inactive

structure.string: COc1ccc(N(Cc2cc3ccc(C)cc3[nH]c2=O)S(=O)(=O)c2ccccc2)cc1
assigned.label: inactive

Could you kindly confirm the outcome this assay logged for "CCS(=O)(=O)Nc1cccc(-c2cc(-c3ccccc3)c3cc(C)ccc3n2)c1" ?
inactive

###

- protocol: growth inhibitors of tim23-1 mutant yeast, primary screen, luminescence, uHTS (AID 463212);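 also: temperature-sensitive mutant grown at 25 °C; plate controls were DMSO-treated mutant yeast for no effect and medium wells lacking yeast for full effect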
- conditions: S. cerevisiae tim23-1 growth, BacTiter-Glo luminescence, 24 h; at 20 µM; active compounds read high
The whole screen tested about 330,000 compounds, of which about 4,400 (1.3%) were called active. Only a selection was taken, and actives are over-represented in it overall.
endpoint: inhibition (%)
Form entry: value (%) — number only.

Before answering, review these 3 worked examples.
molecule: Oc1c(Cl)cc(Cl)c(Cl)c1Cc1c(O)c(Cl)cc(Cl)c1Cl
inhibition (%): 94.9

molecule: COc1ccc(C(C[N+](=O)[O-])n2nc(C)cc2C)cc1 (stereo not given)
inhibition (%): 84.7

molecule: CCn1c(=O)c(C(=O)NCc2ccc3c(c2)OCO3)c(O)c2ccccc21
inhibition (%): 28.6

Give the measured inhibition of COc1ccc(CC2c3cc(OC)c(OC)cc3CC[N+]2(C)CCC(=O)OCCCCCOC(=O)CC[N+]2(C)CCc3cc(OC)c(OC)cc3C2Cc2ccc(OC)c(OC)c2)cc1OC (stereo not given) .
3.67

Need inhibition, item CCc1[nH]nc(C(=O)N2CCCC(CNS(=O)(=O)c3cccs3)C2)c1C (stereo not given)
0.752

Report inhibition for "O=C(NCc1ccc2c(c1)OCO2)c1sccc1Br" please.
11

###

- protocol: growth inhibitors of tim23-1 mutant yeast, primary screen, luminescence, uHTS (AID 463212);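 also: temperature-sensitive mutant grown at 25 °C; plate controls were DMSO-treated mutant yeast for no effect and medium wells lacking yeast for full effect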
- conditions: S. cerevisiae tim23-1 growth, BacTiter-Glo luminescence, 24 h; at 20 µM; active compounds read high
Screen size: about 330,000 compounds; about 4,400 (1.3%) were called active. Shown is part of a subset that was picked to be rich in actives.
List of inhibition values.
Reply with just the number (in %).

structure.string: CCCCNC(=O)CCn1c(=O)c2ccccc2n(Cc2cc(C)ccc2C)c1=O
inhibition / %: -7.13

structure.string: O=C(CNC(=O)OCc1ccccc1)Oc1cc2oc(=O)cc(-c3ccccc3)c2cc1Cl
inhibition / %: 54.3

structure.string: COc1ccc(C(=O)CC(=O)c2ccc(C)cc2)c(O)c1
inhibition / %: 29.8

structure.string: O=[N+]([O-])c1ccc2oc(-c3cccc(O)c3)nc2c1
inhibition / %: 29.8

structure.string: O=C(COc1ccc(Cl)cc1Cl)N/N=C/c1ccccn1
inhibition / %: 39

Please turn your attention to the following entry.
Would you kindly share the measured inhibition for "C/C(=N\NC(=O)c1ccc(NS(=O)(=O)c2cccs2)cc1)c1ccc2ccccc2c1" ?
10.6
